Assay: activity coefficient (dimensionless); of the first substance listed, at infinite dilution; xn = mol fraction of the nth substance listed
Conditions: 334.8 K; 101 kPa; Liquid; Chromatography; x1 = 0
outcome measure: activity coefficient
One number for each entry.

Examples with their reported activity coefficient follow.
molecule	activity coefficient
CCO [ethanol] + CCCCn1cc[n+](C)c1.F[P-](F)(F)(F)(F)F	2.47
Cc1ccc(C)cc1 [1,4-dimethylbenzene] + CCCCn1cc[n+](C)c1.F[P-](F)(F)(F)(F)F	2.28
CCCCCO [pentan-1-ol] + CCCCn1cc[n+](C)c1.F[P-](F)(F)(F)(F)F	6.47
CC(C)CO [2-methyl-1-propanol] + CCCCn1cc[n+](C)c1.F[P-](F)(F)(F)(F)F	3.84
CCCC(C)O (centres undefined) [pentan-2-ol] + CCCCn1cc[n+](C)c1.F[P-](F)(F)(F)(F)F	4.38
CCCCO [butan-1-ol] + CCCCn1cc[n+](C)c1.F[P-](F)(F)(F)(F)F	4.24
Cc1ccccc1C [1,2-dimethylbenzene] + CCCCn1cc[n+](C)c1.F[P-](F)(F)(F)(F)F	2.2
CC(C)O [propan-2-ol] + CCCCn1cc[n+](C)c1.F[P-](F)(F)(F)(F)F	2.85

Lookup: # activity coefficient lookup, item CC(C)=O [acetone] + CCCCn1cc[n+](C)c1.F[P-](F)(F)(F)(F)F
Found: 0.699

* * *

Experiment: activity coefficient (dimensionless); of the first substance listed, at infinite dilution; xn = mol fraction of the nth substance listed
Settings: 325.3 K; 101 kPa; Liquid; Chromatography; x1 = 0
outcome measure: activity coefficient
Numbers only.

compound	activity coefficient
CCO [ethanol] + CCCC[n+]1ccc(C)cc1.F[B-](F)(F)F	1.49
CCCO [propan-1-ol] + CCCCn1cc[n+](C)c1.F[P-](F)(F)(F)(F)F	3.46
CO [methanol] + CCCC[n+]1ccc(C)cc1.F[B-](F)(F)F	0.907

Moving on to the next compound.
Lookup: I'd like to know its activity coefficient. The compound in question is CCCCO [butan-1-ol] + CCCCn1cc[n+](C)c1.F[P-](F)(F)(F)(F)F
Found: 4.77

* * *

Assay: activity coefficient (dimensionless); of the first substance listed, at infinite dilution; xn = mol fraction of the nth substance listed
Details: 306.6 K; 101 kPa; Liquid; Chromatography; x1 = 0
outcome measure: activity coefficient

molecule	activity coefficient
CO [methanol] + CCCC[n+]1ccc(C)cc1.F[B-](F)(F)F	1.01

Please go through the list and note activity coefficient for each molecule.
1. CCO [ethanol] + CCCC[n+]1ccc(C)cc1.F[B-](F)(F)F
2. CCC(C)=O [butanone] + CCCC[n+]1ccc(C)cc1.F[B-](F)(F)F
3. CC(C)=O [acetone] + CCCC[n+]1ccc(C)cc1.F[B-](F)(F)F

Found:
1: 1.7; 2: 1.53; 3: 0.995

* * *

Please provide measured activity coefficient for the entries that follow.
Experiment: activity coefficient (dimensionless); of the first substance listed, at infinite dilution; xn = mol fraction of the nth substance listed
Conditions: 334.8 K; 101 kPa; Liquid; Chromatography; x1 = 0
Numbers only.

compound	outcome measure	recorded number
Cc1ccccc1 [toluene] + CCCCn1cc[n+](C)c1.F[P-](F)(F)(F)(F)F	activity coefficient	1.71
CC(C)CCO [3-methylbutan-1-ol] + CCCCn1cc[n+](C)c1.F[P-](F)(F)(F)(F)F	activity coefficient	5.2

For each of the compounds below, note its activity coefficient.
1. CO [methanol] + CCCCn1cc[n+](C)c1.F[P-](F)(F)(F)(F)F
2. CCC(C)O (stereo not given) [butan-2-ol] + CCCCn1cc[n+](C)c1.F[P-](F)(F)(F)(F)F
3. CC(=O)CC(C)=O [2,4-pentanedione] + CCCCn1cc[n+](C)c1.F[P-](F)(F)(F)(F)F

Found:
1: 1.81; 2: 3.37; 3: 1.03

Values from the NIST ThermoML archive (doi:10.1021/je800246v)
